These entries and their values trace back to ChEMBL document CHEMBL3774331.

run description: Inhibition of TAU derived synthetic hexapeptide AcPHF6 fibril formation at compound:AcPHF6 ratio of 1:1 to 1:64 incubated for 60 mins by thioflavin S fluorescence assay
Activity calls are given as the source filed them. No cut-off for these calls is given here. Where a SMILES comes first, the peptide text is derived from it. Bridges are numbered along the chain shown (N, C = ends).

[
  {
    "compound": "CC[C@H](C)[C@@H]1NC(=O)[C@@H]2CCCN2C(=O)[C@@H]2CCCN2C(=O)[C@H]([C@@H](C)CC)NC(=O)[C@H](CO)NC(=O)[C@H](Cc2ccccc2)NC(=O)[C@H](CC(N)=O)NC(=O)[C@@H]2CSSC[C@H](NC1=O)C(=O)N[C@@H](CCC(N)=O)C(=O)N[C@@H](CCCCN)C(=O)N[C@@H](CO)C(=O)N1CCC[C@H]1C(=O)N[C@@H](CC(=O)O)C(=O)NCC(=O)N[C@@H](CO)C(=O)N[C@@H](CC(N)=O)C(=O)N[C@@H](CCC(N)=O)C(=O)N2 (cyclo(CNFSIPPICQKSPDGSNQ); disulfide 1-9)",
    "inhibition": "Active"
  },
  {
    "compound": "CC[C@H](C)[C@@H]1NC(=O)[C@@H]2CSSC[C@H](NC(=O)[C@H]([C@@H](C)CC)NC(=O)[C@H](CCC(N)=O)NC(=O)[C@@H]3CCCN3C(=O)[C@@H]3CCCN3C(=O)[C@H](C)NC1=O)C(=O)N[C@@H](Cc1ccc(O)cc1)C(=O)N[C@@H](CCCCN)C(=O)N[C@@H](CO)C(=O)N[C@@H]([C@@H](C)CC)C(=O)N1CCC[C@H]1C(=O)N1CCC[C@H]1C(=O)NCC(=O)N2 (cyclo(APPQICYKSIPPGCI); disulfide 6-14)",
    "inhibition": "Active"
  }
]

----------
run description: Inhibition of TAU derived synthetic hexapeptide AcPHF6 fibril formation at compound:AcPHF6 ratio of 1:1 to 1:64 incubated for 60 mins by thioflavin S fluorescence assay
Calls of active or inactive are those of the source. The rule behind the calls is not given here. Where a SMILES comes first, the peptide text is derived from it. Bridges are numbered along the chain shown (N, C = ends).
Thanks in advance; please answer with one of these: yes (active), no (inactive)

Some entries whose results are on file:
[
  {
    "compound": "CC[C@H](C)[C@@H]1NC(=O)[C@H](CCC(N)=O)NC(=O)[C@H](C(C)C)NC(=O)CNC(=O)[C@H]2CCCN2C(=O)[C@H](C(C)C)NC(=O)[C@H](CCC(N)=O)NC(=O)[C@H]([C@@H](C)CC)NC(=O)[C@@H]2CSSC[C@H](NC1=O)C(=O)N[C@@H](Cc1ccc(O)cc1)C(=O)N[C@@H](CCCCN)C(=O)N[C@@H](CO)C(=O)N[C@@H]([C@@H](C)CC)C(=O)N1CCC[C@H]1C(=O)N1CCC[C@H]1C(=O)N[C@@H]([C@@H](C)CC)C(=O)N2",
    "answer label": "yes"
  },
  {
    "compound": "CC[C@H](C)[C@@H]1NC(=O)[C@H](CCC(N)=O)NC(=O)[C@H](C(C)C)NC(=O)CNC(=O)[C@H](CC(=O)O)NC(=O)[C@@H]2CCCN2C(=O)[C@H](C(C)C)NC(=O)[C@H](CCCCN)NC(=O)[C@H]([C@@H](C)CC)NC(=O)[C@@H]2CSSC[C@H](NC1=O)C(=O)N[C@@H](Cc1ccc(O)cc1)C(=O)N[C@@H](CCCCN)C(=O)N[C@@H](CO)C(=O)N[C@@H]([C@@H](C)CC)C(=O)N1CCC[C@H]1C(=O)N1CCC[C@H]1C(=O)N[C@@H]([C@@H](C)CC)C(=O)N2 (cyclo(CIKVPDGVQICYKSIPPI); disulfide 1-11)",
    "answer label": "yes"
  },
  {
    "compound": "CC[C@H](C)[C@@H]1NC(=O)[C@H](CCC(N)=O)NC(=O)[C@H](C(C)C)NC(=O)CNC(=O)[C@H]2CCCN2C(=O)[C@H](C(C)C)NC(=O)[C@H](C)N(C)C(=O)[C@H]([C@@H](C)CC)NC(=O)[C@H](C)NC(=O)[C@H]([C@@H](C)CC)NC(=O)[C@@H]2CCCN2C(=O)[C@@H]2CCCN2C(=O)[C@H]([C@@H](C)CC)NC(=O)[C@H](CO)NC(=O)[C@H](CCCCN)NC(=O)[C@H](Cc2ccc(O)cc2)NC(=O)[C@H](C(C)C)NC1=O",
    "answer label": "yes"
  },
  {
    "compound": "CC[C@@H](C)[C@@H]1NC(=O)[C@@H]2CSSC[C@H](NC(=O)[C@@H]([C@H](C)CC)NC(=O)CNC(=O)[C@H]3CCCN3C1=O)C(=O)N[C@H](Cc1ccc(O)cc1)C(=O)N[C@H](CCCCN)C(=O)N[C@H](CO)C(=O)N[C@H]([C@H](C)CC)C(=O)N1CCC[C@H]1C(=O)N1CCC[C@H]1C(=O)NCC(=O)N2",
    "answer label": "yes"
  },
  {
    "compound": "CC[C@H](C)[C@@H]1NC(=O)[C@H](CCC(N)=O)NC(=O)[C@H](C(C)C)NC(=O)CNC(=O)[C@H](CC(=O)O)NC(=O)[C@@H]2CCCN2C(=O)[C@H](C(C)C)NC(=O)[C@H](C)NC(=O)[C@H](Cc2ccccc2)NC(=O)[C@@H]2CSSC[C@H](NC1=O)C(=O)N[C@@H](Cc1ccc(O)cc1)C(=O)N[C@@H](CCCCN)C(=O)N[C@@H](CO)C(=O)N[C@@H]([C@@H](C)CC)C(=O)N1CCC[C@H]1C(=O)N1CCC[C@H]1C(=O)N[C@@H]([C@@H](C)CC)C(=O)N2 (cyclo(AVPDGVQICYKSIPPICF); disulfide 9-17)",
    "answer label": "yes"
  }
]

Dear colleague, could you share the recorded outcome for CC[C@H](C)[C@@H]1NC(=O)[C@@H]2CCCN2C(=O)[C@@H]2CCCN2C(=O)[C@H]([C@@H](C)CC)NC(=O)[C@H](CO)NC(=O)[C@H](CCCCN)NC(=O)[C@H]([C@@H](C)O)NC(=O)[C@H](C)NC(=O)[C@H](CCCNC(=N)N)NC(=O)CNC(=O)[C@H](CC(=O)O)NC(=O)[C@@H]2CCCN2C(=O)[C@H](Cc2ccccc2)NC(=O)[C@H](C)NC1=O (cyclo(AFPDGRATKSIPPI)) when you have a moment?
yes

What did this assay record as the result for CC[C@H](C)[C@@H]1NC(=O)[C@@H]2CCCN2C(=O)[C@@H]2CCCN2C(=O)[C@H]([C@@H](C)CC)NC(=O)[C@H](CO)NC(=O)[C@H](C)NC(=O)[C@H]([C@@H](C)O)NC(=O)[C@@H]2CSSC[C@H](NC1=O)C(=O)N[C@@H](Cc1ccccc1)C(=O)N1CCC[C@H]1C(=O)N[C@@H](CC(=O)O)C(=O)NCC(=O)N[C@@H](CCCNC(=N)N)C(=O)N2 (cyclo(ASIPPICFPDGRCT); disulfide 7-13) ?
yes

Can you look up the reported call for `CC[C@H](C)[C@@H]1NC(=O)[C@H](CCC(=O)O)NC(=O)[C@@H]2CCCN2C(=O)[C@H](Cc2cnc[nH]2)NC(=O)[C@H](CC(=O)O)NC(=O)[C@H](Cc2ccc(O)cc2)NC(=O)[C@H](CC(N)=O)NC(=O)[C@H]2CSSC[C@H](NC(=O)CN)C(=O)N[C@@H](CSSC[C@@H](C(=O)NCC(=O)NCC(=O)N[C@@H](C)C(=O)NCC(=O)NCC(=O)O)NC1=O)C(=O)N[C@H](CO)C(=O)N[C@@H](CC(=O)O)C(=O)N1CCC[C@H]1C(=O)N[C@H](CCCNC(=N)N)C(=O)N2` for me?
no

Hello, I am checking results. What call was entered for CC[C@H](C)[C@@H]1NC(=O)[C@H](CCC(N)=O)NC(=O)[C@H](C(C)C)NC(=O)CNC(=O)[C@H](CC(=O)O)NC(=O)[C@@H]2CCCN2C(=O)[C@H](C(C)C)NC(=O)[C@H](CCCCN)NC(=O)[C@H]([C@@H](C)CC)NC(=O)[C@@H]2CSSC[C@H](NC1=O)C(=O)N[C@@H](Cc1ccc(O)cc1)C(=O)N[C@@H](CCCCN)C(=O)N[C@@H](CO)C(=O)N[C@@H]([C@@H](C)CC)C(=O)N1CCC[C@H]1C(=O)N1CCC[C@H]1C(=O)NCC(=O)N2 (cyclo(CIKVPDGVQICYKSIPPG); disulfide 1-11) ?
yes
